B1: Twister Ribozyme (parent)
chain: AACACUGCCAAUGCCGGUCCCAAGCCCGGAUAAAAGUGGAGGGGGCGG

variants of: B1; experiment: self-cleavage, relative activity (ratio to wild type); higher = more cleavage; co-transcriptional
Quick rule: self-cleavage of at least 0.1 means TRUE, below that means FALSE.

- variant_notation: "A1C A30G"
  class_name: "TRUE"
- variant_notation: "C3U U6G"
  class_name: "TRUE"
- variant_notation: "U18G A40G"
  class_name: "FALSE"
- variant_notation: "C14A G38A"
  class_name: "TRUE"
- variant_notation: "C20A G47A"
  class_name: "FALSE"
- variant_notation: "A34G G47A"
  class_name: "TRUE"
- variant_notation: "A11U C14A"
  class_name: "TRUE"
- variant_notation: "G7C G24A"
  class_name: "FALSE"
- variant_notation: "C14A G48A"
  class_name: "TRUE"
- variant_notation: "G7C A32G"
  class_name: "TRUE"
- variant_notation: "G29A G41C"
  class_name: "TRUE"
- variant_notation: "C15A G17C"
  class_name: "FALSE"
- variant_notation: "A32G A33C"
  class_name: "TRUE"
- variant_notation: "G16C"
  class_name: "TRUE"
- variant_notation: "A4G C26A"
  class_name: "TRUE"
- variant_notation: "C19G A34C"
  class_name: "FALSE"
- variant_notation: "A23U G41U"
  class_name: "TRUE"
- variant_notation: "G38A G41A"
  class_name: "TRUE"
- variant_notation: "C8G C20A"
  class_name: "TRUE"
- variant_notation: "C19A G28A"
  class_name: "TRUE"
- variant_notation: "A2G A32U"
  class_name: "TRUE"
